Entries and their TGI values follow.
Tested on: LOX IMVI melanoma
Measurement Description: NCI tumour cell line growth inhibition, 48 h

>  <Compound>
O=C(O)c1ccc(C(=O)O)c(C(=O)Nc2ccc3c(c2)C(=O)c2ccccc2-3)c1

>  <TGI>
> 100 µM

$$$$

Provide measured TGI on LOX IMVI melanoma for Cc1cc(N(CCCl)CCCl)ccc1C=Nc1ccc2ccccc2c1 please.
> 100 µM

Determine reported TGI for O=c1[nH]c(=O)n(C2OC(CO)C(O)C2O)cc1Oc1ccccc1 (stereo not drawn) ; test system: LOX IMVI melanoma.
> 100 µM

Report its TGI with LOX IMVI melanoma as the test system: Cn1c(=O)sc2cc(C(=S)N3CCC(Cc4ccccc4)CC3)ccc21
> 100 µM

# return TGI of CCN(CC)C1CCC(Nc2c(C(C)=O)cnc3ccc(-c4ccc(O)c(Cl)c4)cc23)CC1 (stereo not drawn) (system: LOX IMVI melanoma)
1.58 µM

Look up and report measured TGI (LOX IMVI melanoma) for the following compound: C1CC[C@H]2SSC3CCCC[C@H]3SSC2C1 (stereo partly drawn)
> 100 µM

GET TGI | system: LOX IMVI melanoma | item: CC1CCC2(CC1)NC1=C(CC(C)CC1)C1=C2CC(C)CC1 (stereo not drawn)
34.9 µM

Give TGI; test system LOX IMVI melanoma; compound Cc1cccc(-c2cc(=O)c3c(C)cc(C)nc3[nH]2)c1
> 100 µM

Write down the reported TGI (system: LOX IMVI melanoma) of COC(=O)[C@H](CC(C)C)Nc1c(O)c2c(c(O)c1Cl)C(=O)C=CC2=O
5.74 µM

* * *

Entries and their TGI values follow.
Test system: M14 melanoma
Measurement Description: NCI tumour cell line growth inhibition, 48 h

Some entries whose results are on file:
>  <Molecule>
Cc1ccc(NC(=O)c2sc3nc4c(cc3c2N)C(=O)CCC4)cc1C

>  <Metric Name>
TGI

>  <Val>
> 100 µM

$$$$
>  <Molecule>
CCN(CC)CCNc1ccc2nnn3c4ccc(O)cc4c(=O)c1c23

>  <Metric Name>
TGI

>  <Val>
20.1 µM

$$$$
>  <Molecule>
Fc1ccc(-c2sc(-c3cccs3)cc2Cc2cccs2)cc1

>  <Metric Name>
TGI

>  <Val>
> 100 µM

$$$$
>  <Molecule>
O=C1c2ccccc2-c2c1c1ccccc1c(=O)n2CCCNCCCCNCCCN1C(=O)c2ccccc2C2C(=O)c3ccccc3C21 (stereo not drawn)

>  <Metric Name>
TGI

>  <Val>
1.53 µM

$$$$
>  <Molecule>
O=C1OCC2=C1C(c1ccc(Cl)c(Cl)c1)c1cc3c(cc1N2CCO)CCC3 (stereo not drawn)

>  <Metric Name>
TGI

>  <Val>
6.53 µM

$$$$
>  <Molecule>
O=S(=O)(/N=c1/scc(-c2ccccc2)n1-c1ccccc1)c1ccc(N2N=C3c4ccccc4CC3C2c2cccs2)cc1 (stereo not drawn)

>  <Metric Name>
TGI

>  <Val>
> 100 µM

$$$$

Specify TGI for c1ccc2c(c1)N=C(c1cccc3ccccc13)CC(c1ccc3c(c1)OCO3)S2 (stereo not drawn) , system M14 melanoma.
> 100 µM

Name the value of TGI reported for CC(C)(C)c1cc2c(O)c(c1)Cc1cc(C(C)(C)C)cc(c1O)Cc1cc(C(C)(C)C)cc(c1O)Cc1cc(C(C)(C)C)cc(c1O)Cc1cc(C(C)(C)C)cc(c1O)Cc1cc(C(C)(C)C)cc(c1O)Cc1cc(C(C)(C)C)cc(c1O)Cc1cc(C(C)(C)C)cc(c1O)C2 when tested on M14 melanoma.
> 50 µM
